List of IC50 tested on WDR5 (Homo sapiens, UniProt P61964).
quantity_measured: IC50

> print(dat)
                                   compound                          test.system  value.observed
1  CCOc1cc(CN2CCc3c(cc(CCN(C)CC)cc3-c3ccc(F)nc3C)C2=O)ncc1F  WDR5 (Homo sapiens, UniProt P61964)         < 10 nM
2  CCOc1cc([C@H](C)N2CCc3c(Cl)cc(Cn4ccnc4NC)cc3C2=O)cnc1C#N  WDR5 (Homo sapiens, UniProt P61964)   10 to 1000 nM
3  CCOc1cc([C@H](C)N2CCc3c(cc(CCN(C)CC)cc3-c3cn(CC)nc3C(F)F)C2=O)ncc1C#N  WDR5 (Homo sapiens, UniProt P61964)         < 10 nM
4  CCOc1cc([C@H](C)N2CCc3c(CN(C)C)cc(Cn4ccnc4NC)cc3C2=O)ncc1Cl  WDR5 (Homo sapiens, UniProt P61964)   10 to 1000 nM
5  CCOc1cc([C@H](C)N2CCc3c(cc(CCN4C[C@@H](OC)[C@H]4C)cc3-c3ccc(F)nc3C)C2=O)ncc1C#N  WDR5 (Homo sapiens, UniProt P61964)   10 to 1000 nM
6  CCOc1cc(C(C)N2CCc3c(cc(CCN(C)CC)cc3-c3cc(C(C)O)cnc3Cl)C2=O)ncc1C#N (stereo not shown)  WDR5 (Homo sapiens, UniProt P61964)   10 to 1000 nM
7  CCOc1cc([C@H](C)N2CCc3c(cc(CCN(C)CC)cc3-c3cc(N)ncc3C(F)(F)F)C2=O)ncc1C#N  WDR5 (Homo sapiens, UniProt P61964)   10 to 1000 nM

FYI, the data here is from patent US20220289732A1.
